# Tested on: rodent lifetime carcinogenesis bioassay, tumor incidence TD50
# MEASUREMENT_NOTES: carcinogenic potency in animals, long-term in vivo studies, CPDB compilation (AID 1745844)
# PROTOCOL_CONDITIONS: rat; strain MRC-Wistar; males; by gavage; site: urethra; lesion: several types; types named in the paper; dosed 104 weeks; study length 104 weeks
MEASURED_ENDPOINT: TD50

Problem: Supply reported TD50 belonging to this compound: "CC(=O)CN(CC(C)=O)N=O"
Solution: 0.891 mg/kg/day

----------
# Tested on: rodent lifetime carcinogenesis bioassay, tumor incidence TD50
# MEASUREMENT_NOTES: carcinogenic potency in animals, long-term in vivo studies, CPDB compilation (AID 1745844)
# PROTOCOL_CONDITIONS: mouse; strain Charles River CD1; males; inhaled; site: lung; lesion: adenoma; dosed 78 weeks; study length 78 weeks
MEASURED_ENDPOINT: TD50 (mg/kg/day)
Give just the number in mg/kg/day; leave the unit off.

Problem: Supply reported TD50 belonging to this compound: "CCC(C)=NO"
Solution: 1100
